- Test system: HCT-116 colon
- protocolSummary: NCI tumour cell line growth inhibition, 48 h

[
  {
    "compound": "OC[C@H]1C[C@](O)(c2ccc(Cl)cc2)[C@@H](c2ccc(Cl)cc2)O1",
    "valueOperator": "=",
    "TGI (µM)": 35.6
  },
  {
    "compound": "CCC[CH2][Sn]1([CH2]CCC)[O]N=C(c2ccccc2)C(c2ccccc2)[O]1 (stereo not given)",
    "valueOperator": "=",
    "TGI (µM)": 3.35
  },
  {
    "compound": "CCCC(=O)n1[nH]c(=O)n(-c2ccc(Cl)cc2)c1=O",
    "valueOperator": ">",
    "TGI (µM)": 100
  },
  {
    "compound": "Nc1ncnc2c1ccn2C/C=C\\CO",
    "valueOperator": ">",
    "TGI (µM)": 100
  },
  {
    "compound": "CCOC(=O)CCCn1c(SC)nc2[nH]cc(-c3ccccc3)c2c1=O",
    "valueOperator": "=",
    "TGI (µM)": 34
  },
  {
    "compound": "C=C1C(=O)C[C@H]2C(=C)C(=O)O[C@@H]2C2C1CC[C@@]2(C)O (stereo not given in full)",
    "valueOperator": ">",
    "TGI (µM)": 100
  },
  {
    "compound": "CC(C)CC1C(=O)NCCC(NC(=O)C(Cc2ccc(OC(C)(C)C)cc2)NC(=O)OC(C)(C)C)C(=O)NC(Cc2ccccc2)C(=O)NC(Cc2ccccc2)NC1=O (stereo not given)",
    "valueOperator": "=",
    "TGI (µM)": 17.4
  },
  {
    "compound": "O=C1NC(=O)C(c2c[nH]c3ccccc23)=C1c1cnc[nH]1",
    "valueOperator": ">",
    "TGI (µM)": 100
  },
  {
    "compound": "CCN1CCN(C(c2ccc(C(F)(F)F)cc2)c2ccc3cccnc3c2O)CC1 (stereo not given)",
    "valueOperator": "=",
    "TGI (µM)": 13.5
  },
  {
    "compound": "COc1ccc(C2COc3cc(OC(C)=O)c(OC(C)=O)cc3C2)cc1 (stereo not given)",
    "valueOperator": "=",
    "TGI (µM)": 47.3
  }
]

---

- Tested on: UACC-62 melanoma
- protocolSummary: NCI tumour cell line growth inhibition, 48 h
Here the recorded TGI is given for each entry.
observationType: TGI

[
  {
    "molecule": "CN1CCN(CCOc2ccc(-c3cnc4c(-c5ccccc5F)cnn4c3)cc2)CC1",
    "assayTarget": "UACC-62 melanoma",
    "result": "3.17 µM"
  },
  {
    "molecule": "C=C(CCC/C(C)=C/C=C/[C@]1(C)CCCc2ccoc21)CC(=O)O",
    "assayTarget": "UACC-62 melanoma",
    "result": "> 100 µM"
  },
  {
    "molecule": "O=C1NC(NNc2ccccc2)=N/C1=C\\c1ccccc1O",
    "assayTarget": "UACC-62 melanoma",
    "result": "> 100 µM"
  },
  {
    "molecule": "Cc1cc(C)n2nc3nc(N)c(C#N)c(-c4ccccc4)c3c2n1",
    "assayTarget": "UACC-62 melanoma",
    "result": "> 100 µM"
  },
  {
    "molecule": "CCCCC(C(=O)C(=O)NC1C2CC3CC(C2)CC1C3)C(=O)C(C)C (configuration not stated)",
    "assayTarget": "UACC-62 melanoma",
    "result": "> 100 µM"
  },
  {
    "molecule": "CC(CCC=O)CCOCc1ccccc1 (configuration not stated)",
    "assayTarget": "UACC-62 melanoma",
    "result": "> 100 µM"
  },
  {
    "molecule": "NC(=O)NC1C(c2ccccc2)=C1c1ccccc1",
    "assayTarget": "UACC-62 melanoma",
    "result": "23.4 µM"
  },
  {
    "molecule": "N=C1/C(=C/c2ccc(F)cc2)C(=O)N=C2SC=NN12",
    "assayTarget": "UACC-62 melanoma",
    "result": "> 100 µM"
  },
  {
    "molecule": "CC(C)(Cl)C(Br)CCC(C)(Cl)C(Br)CBr (configuration not stated)",
    "assayTarget": "UACC-62 melanoma",
    "result": "> 100 µM"
  },
  {
    "molecule": "O=C(O)CCC(=O)c1ccc[nH]1",
    "assayTarget": "UACC-62 melanoma",
    "result": "> 100 µM"
  },
  {
    "molecule": "Cc1ccc(NC(=O)C(=O)C(C(=O)c2ccc3ccccc3c2)C2OC(=O)c3ccccc32)cc1C (configuration not stated)",
    "assayTarget": "UACC-62 melanoma",
    "result": "30.7 µM"
  },
  {
    "molecule": "O=C1/C(=C/c2ccc(Br)cc2)COc2ccc(O)c(O)c21",
    "assayTarget": "UACC-62 melanoma",
    "result": "2.4 µM"
  }
]
